test: viability of HCT116 lacking mutant beta-catenin – cell-based, human colon tumor, dose response (AID 1045); format: functional;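 further: HCT116 colon tumor cells with beta catenin knocked out; cells exposed to compound for 60 hours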
Active and inactive are the calls of the source.
REPORTED_METRIC: EC50

# get_value(readout='EC50', item= O=C(NCC1OCCc2ccccc21)c1ccc(NC(=O)c2cccc(Br)c2)cc1 (configuration not stated) )
36.9 µM (active)

What value of EC50 has been reported for the following molecule? CCC1(C)Cc2c(sc3nnn(CC(=O)Nc4cccc5ccccc45)c(=O)c23)CO1 (configuration not stated)
23.9 µM (active)

Can you look up the measured EC50 of Cc1cc(C2(c3ccc(O)c(C)c3)C(=O)Nc3ccccc32)ccc1O for me?
17 µM (active)

// lookup EC50 for CCC(=O)c1ccc(OCC(O)CN(CCc2ccccc2)Cc2ccccc2)cc1 (configuration not stated)
83.6 µM (active)

Quick check: EC50 of Cc1cc(NC(=O)CSc2nc3c(c(=O)n2-c2ccc(Br)cc2)SCC3)no1 ?
155 µM (active)

Item COc1ccc(/C=C/C(O)=C2/C(=O)N(C)C3(C)CC2c2ccccc2O3)cc1 (configuration not stated) has what recorded EC50?
8.06 µM (active)

Look up EC50 for this molecule: CCC(C)NC(=O)c1c(N)n(Cc2ccc3c(c2)OCO3)c2nc3ccccc3nc12 (configuration not stated)
14.2 µM (active)

====

Kindly state AC50 for each of the entries shown.
assay: Luminescence Cell-Based Dose Retest to Confirm Inhibitors of Cancer Stem Cells. [Related pubchem assays (depositor defined):AID2717, AID2721]; assay type: functional; conditions: Homo sapiens
Calls of active or inactive are those of the source.

Can you look up the measured AC50 of COc1cc(/C=C(\C#N)c2ccccn2)ccc1OCC(=O)Nc1ccc(Br)cc1 for me?
1.71 µM (active)

Record request: AC50 value, item N#CC1=C(N)N2C(=C(C#N)C1c1ccc(Br)cc1)Nc1ccccc12 (configuration not stated)
0.794 µM (active)

Fill in: AC50 of Cc1ccc(S(=O)(=O)Nc2ccc(-c3nnc(SCc4ccccc4Cl)o3)cc2)cc1 is ___
3.88 µM (active)

Dear colleague, I am looking for the recorded AC50 of the following molecule: COc1ccc(C2NCCc3c2[nH]c2ccccc32)cc1CSc1nc2ccccc2s1 (configuration not stated)
3.13 µM (active)

// returns reported AC50 for input O=C1NC[C@@H](Cc2cccc3ccccc23)N(CCCCC2CCCCC2)C1=O
3.84 µM (active)

# input molecule: CCCC(O)(c1ccc(Cl)cc1)C(CN1CCOCC1)c1ccc(Cl)cc1 (configuration not stated) ; wanted: its AC50
6 µM (active)

For the molecule Cc1[nH]n(-c2ccccc2)c(=O)c1/C=C1/C(=O)NN(c2ccc(F)cc2)C1=O , what AC50 is on record?
4.08 µM (active)

====

Assignment: determine reported IC50 for the given compounds.
target: UniProt:P00734; assay: Thrombin 1536 HTS Dose Response Confirmation. [Related pubchem assays: 1046 (Thrombin 1536 HTS; hits were confirmed in this assay)]; assay type: functional
Calls of active or inactive are those of the source.

Form: Entry = CCOC(=O)Cn1c(=O)oc2cc(S(=O)(=O)NCCc3ccc(C)cc3)ccc21 | System = UniProt:P00734 | IC50 = ____
> 50 µM (not active)

Hello, I am looking for reported IC50 with UniProt:P00734 for NC(=NOC(=O)c1cccc(Cl)c1)c1cccnc1 . Could you help?
> 50 µM (not active)

Item: CCN(CC)C(=O)Cn1cc(C(=O)C(=O)NCCCn2ccnc2)c2ccccc21 Test system: UniProt:P00734 Read-out: IC50 Value: ?
> 50 µM (not active)

Entry CCCC(=O)n1nc(-c2ccc(C)cc2)nc1NCc1ccco1 , system UniProt:P00734: what IC50 was measured?
11.1 µM (active)

Which IC50 is reported with UniProt:P00734 for this entry: Nc1nc(-c2ccco2)nn1C(=O)c1cccnc1 ?
0.589 µM (active)
